tested target: T1, PF4/heparin complex (human PF4 complexed with heparin) (human, UniProt P02776 32-101)
T1 sequence: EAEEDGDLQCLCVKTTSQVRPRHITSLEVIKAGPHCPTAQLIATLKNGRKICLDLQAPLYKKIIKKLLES
experiment: cell-based or functional assay
measured attribute: % inhibition of 14C-serotonin release (SRA), HIT-Positive Patient #1 serum, scFv 50 µg/mL (%)

binder	readout value
Mutant D scFv, scFv(Y156H) (scFv, VL-linker-VH; histidine-tagged, from E. coli BL21; also called Mut D; not shown: histidine tag from the pADL-22c vector) scFv: DIQMIQSQKFMSTSVGDRVTVTCKASQNVGTNVAWYQQKPGQSPNALIYSASYRYSGVPDRFTGSGSGTDFTLTITNVQSEDLADYFCQQYNSYPLTFGTGTKLDLKGGGGSGGGGSGGGGSVQLQQSGAELVKPGASVKLSCKASGYTFTNYFIHWVKQRPGQGLEWIGEINPRNGDTDFNEKFESRATLTVDKSSSTAYMQLSSLTSEDSAIYYCTRSPYGNNYGFTYWGQGTLVTVSA	42.2
Wildtype scFv (KKO-derived single chain variable fragment) (scFv, VL-(G4S)3 linker-VH; expressed in E. coli BL21 from pADL-22c, purified on Ni-NTA as histidine-tagged scFv, about 28 kDa; also called WT; KKO-scFv; not shown: histidine tag from the pADL-22c vector) scFv: DIQMIQSQKFMSTSVGDRVTVTCKASQNVGTNVAWYQQKPGQSPNALIYSASYRYSGVPDRFTGSGSGTDFTLTITNVQSEDLADYFCQQYNSYPLTFGTGTKLDLKGGGGSGGGGSGGGGSVQLQQSGAELVKPGASVKLSCKASGYTFTNYFIYWVKQRPGQGLEWIGEINPRNGDTDFNEKFESRATLTVDKSSSTAYMQLSSLTSEDSAIYYCTRSPYGNNYGFTYWGQGTLVTVSA	15.6
Mutant C scFv, scFv(S50N, Y53H) (scFv, VL-linker-VH; histidine-tagged, from E. coli BL21; also called Mut C; not shown: histidine tag from the pADL-22c vector) scFv: DIQMIQSQKFMSTSVGDRVTVTCKASQNVGTNVAWYQQKPGQSPNALIYNASHRYSGVPDRFTGSGSGTDFTLTITNVQSEDLADYFCQQYNSYPLTFGTGTKLDLKGGGGSGGGGSGGGGSVQLQQSGAELVKPGASVKLSCKASGYTFTNYFIYWVKQRPGQGLEWIGEINPRNGDTDFNEKFESRATLTVDKSSSTAYMQLSSLTSEDSAIYYCTRSPYGNNYGFTYWGQGTLVTVSA	14.4

The reported numbers originate from patent US20250011413A1.
